EXPERIMENT_DESCRIPTION: Body weight and food intake in C57BL/6 mice, fusion protein conjugates, 30 nmol/kg daily 10 days
Assay type: in vivo
Description: 10 week old male C57BL/6 mice were injected everyday subcutaneously with 15 nmol/kg of the fusion protein conjugates (i.e., MLC002, MLC 004, MLC 005, MLC 006, MLC 007, MLC 008, and MLC 009) for 14 days. Food intake and body weight were measured daily and five animals were used for each treatment group. Body weight (BW) was monitored for each individual animal, but food intake for each group animals was measured together. […] Data were calculated in the same way as described above. […]
Below is a list of entries, each paired with its recorded Body weight reduction at 30 nmol/kg (% reduction compared to vehicle)(Day11) value.
A number alone suffices; assume %.

MOLECULE: MLC091: fusion polypeptide SEQ ID NO: 380 conjugated with Moiety B at 35C of Linker (conjugate, Moiety B conjugated at linker Cys35) HGEGTFTSDVSSYLEEQAAKEFIAWLVRGGGGAQPGAQPGAQPGAQPGAQPGAQPGAQPGAQPGQCPGAQPGQEPGAQPGQEPGAQPGQEPGAQPGQEPGAQPGQEPGAQPARQGDHCPLGPGRCCRLHTVRASLEDLGWADWVLSPREVQVTMCIGACPSQFRAANLHAQIKTSLHRLKPDTVPAPCCVPASYNPMVLIQKTDTGVSLQTYDDLLAKDCHCI
RECORDED_NUMBER: 22.7

Attention now shifts to the item below.
Ask: Sample MLC086: fusion polypeptide SEQ ID NO: 377 conjugated with Moiety C at 37C of Linker (conjugate, Moiety C conjugated at linker Cys37) HGEGTFTSDVSSYLEEQAAKEFIAWLVRGGGGQEPGAQPGQEPGAQPGQEPGAQPGQEPGAQPGQEPCQAPGQEPGAQPGAQPGAQPGAQPGAQPGAQPGAQPGAQPGAQPARQGDHCPLGPGRCCRLHTVRASLEDLGWADWVLSPREVQVTMCIGACPSQFRAANLHAQIKTSLHRLKPDTVPAPCCVPASYNPMVLIQKTDTGVSLQTYDDLLAKDCHCI — what was its Body weight reduction at 30 nmol/kg (% reduction compared to vehicle)(Day11)?
Result: 24.4
